Test system: ddY-strain male mice
Test: Acute Toxicity Test
Type: in vivo
Conditions: intravenous; mortality observed for 14 days
As shown below, each of these molecules has a reported Acute Toxicity (MLD), minimum lethal dose value.
observed-property: Acute Toxicity (MLD), minimum lethal dose

[
  {
    "molecule": "COC(=O)c1c(C)[nH]c2c(OC(=O)N3CCN(CC(=O)NC(C)C)CC3)cc3c(c12)C(CBr)CN3C(=O)/C=C/c1ccc(OC)cc1 (centres unmarked)",
    "result": "> 8.0 mg/kg"
  },
  {
    "molecule": "COC(=O)c1c(C)[nH]c2c(OC(=O)N3CCC(N4CCCCC4)CC3)cc3c(c12)C(CBr)CN3C(=O)/C=C/c1ccc(OC)cc1 (centres unmarked)",
    "result": "4.0 mg/kg"
  },
  {
    "molecule": "COC(=O)c1c(C)[nH]c2c(OC(=O)N(C)C)cc3c(c12)C(CBr)CN3C(=O)/C=C/c1ccc(OC)cc1 (centres unmarked)",
    "result": "> 8.0 mg/kg"
  },
  {
    "molecule": "COC(=O)c1c(C)[nH]c2c(OC(=O)Nc3ccccc3)cc3c(c12)C(CBr)CN3C(=O)/C=C/c1ccc(OC)cc1 (centres unmarked)",
    "result": "2.0 mg/kg"
  },
  {
    "molecule": "COC(=O)c1c(C)[nH]c2c(OC(=O)N3CCCC3)cc3c(c12)C(CBr)CN3C(=O)/C=C/c1ccc(OC)cc1 (centres unmarked)",
    "result": "> 8.0 mg/kg"
  },
  {
    "molecule": "COC(=O)c1c(C)[nH]c2c1C13CC1CN(C(=O)/C=C/c1ccc(OC)cc1)C3=CC2=O (centres unmarked)",
    "result": "2.0 mg/kg"
  },
  {
    "molecule": "COC(=O)c1c(C)[nH]c2c(OC(=O)N3CCCCC3)cc3c(c12)C(CBr)CN3C(=O)/C=C/c1ccc(OC)cc1 (centres unmarked)",
    "result": "> 8.0 mg/kg"
  },
  {
    "molecule": "COC(=O)c1c(C)[nH]c2c(OC(=O)N3CCN(C)CC3)cc3c(c12)C(CBr)CN3C(=O)/C=C/c1ccc(OC)cc1 (centres unmarked)",
    "result": "8.0 mg/kg"
  }
]
